Form: system (VEGF (Homo sapiens)), quantity (Kd), values below.
Form entry: enter the amount, then its unit.

COMPOUND	Kd
CC(C)CCCC(C)C1CCC2C3CCC4CC(OCc5cn(C6OC(COS(=O)(=O)O)C(OC7OC(COS(=O)(=O)O)C(OC8OC(COS(=O)(=O)O)C(OS(=O)(=O)O)C(OS(=O)(=O)O)C8OS(=O)(=O)O)C(OS(=O)(=O)O)C7OS(=O)(=O)O)C(OS(=O)(=O)O)C6OS(=O)(=O)O)nn5)CCC4(C)C3CCC12C (centres unmarked) [Compound 76]	790 nM

Let us examine a further case.
Form: item CC(C)CCC[C@@H](C)[C@H]1CC[C@H]2[C@@H]3CCC4CC(O[C@@H]5O[C@H](COS(=O)(=O)O)[C@@H](O[C@@H]6O[C@H](COS(=O)(=O)O)[C@H](OS(=O)(=O)O)[C@H](OS(=O)(=O)O)[C@H]6OS(=O)(=O)O)[C@H](OS(=O)(=O)O)[C@H]5OS(=O)(=O)O)CC[C@]4(C)[C@H]3CC[C@]12C (some centres unmarked) [Compound 112] ; test system VEGF (Homo sapiens); Kd: 430 nM

###

Tested on: pooled normal human plasma
TEST_DESCRIPTION: Anticoagulant activity, APTT
MEASUREMENT_CONDITIONS: 0.1 mg/mL in normal pooled human plasma
So I've got a bunch of compounds here, and I need their APTT values.
Numbers only, in s.

COMPOUND	TESTED_TARGET	OUTPUT_UNIT	NUMERIC_RESULT
CC(C)CCCC(C)C1CCC2C3CCC4CC(OC5OC(COS(=O)(=O)O)C(OS(=O)(=O)O)C(OS(=O)(=O)O)C5OC5OC(COS(=O)(=O)O)C(OS(=O)(=O)O)C(OC6OC(COS(=O)(=O)O)C(OS(=O)(=O)O)C(OS(=O)(=O)O)C6OS(=O)(=O)O)C5OS(=O)(=O)O)CCC4(C)C3CCC12C (centres unmarked)	pooled normal human plasma	s	50.7

Per the record, CC(C)CCC[C@@H](C)[C@H]1CC[C@H]2[C@@H]3CC[C@H]4C[C@@H](O[C@H]5O[C@H](COS(=O)(=O)O)[C@@H](OS(=O)(=O)O)[C@H](OS(=O)(=O)O)[C@@H]5OS(=O)(=O)O)CC[C@]4(C)[C@H]3CC[C@]12C has APTT of 36.1

###

Assignment: determine reported Kd for the given compounds.
TESTED_TARGET: FGF-1 (Homo sapiens)
Sequence (P05230 whole entry, species assumed): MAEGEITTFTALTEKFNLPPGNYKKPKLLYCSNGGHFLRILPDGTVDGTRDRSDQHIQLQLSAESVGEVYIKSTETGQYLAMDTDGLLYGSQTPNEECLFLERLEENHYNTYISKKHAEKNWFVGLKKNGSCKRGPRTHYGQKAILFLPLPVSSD
TEST_DESCRIPTION: Growth factor binding assay (SPR solution affinity), FGF-1
MEASUREMENT_CONDITIONS: SPR, HBS-EP buffer, 25° C.; read-out: Kd FGF-1
Give bare numbers, in nM.

Known Kd results, listed for orientation:
COMPOUND	TESTED_TARGET	NUMERIC_RESULT
CCCCCCCCCCCCCCCCCC(=O)NCCCOC1OC(COS(=O)(=O)O)C(OS(=O)(=O)O)C(OS(=O)(=O)O)C1OC1OC(COS(=O)(=O)O)C(OS(=O)(=O)O)C(OC2OC(COS(=O)(=O)O)C(OS(=O)(=O)O)C(OC3OC(COS(=O)(=O)O)C(OS(=O)(=O)O)C(OC4OC(COS(=O)(=O)O)C(OS(=O)(=O)O)C(OS(=O)(=O)O)C4OS(=O)(=O)O)C3OS(=O)(=O)O)C2OS(=O)(=O)O)C1OS(=O)(=O)O (centres unmarked)	FGF-1 (Homo sapiens)	0.17
CC(=O)OC1CC2C(CCC3CC(OS(=O)(=O)O)CCC32C)C2CCC(C(C)CCC(=O)NC3OC(COS(=O)(=O)O)C(OC4OC(COS(=O)(=O)O)C(OC5OC(COS(=O)(=O)O)C(OC6OC(COS(=O)(=O)O)C(OS(=O)(=O)O)C(OS(=O)(=O)O)C6OS(=O)(=O)O)C(OS(=O)(=O)O)C5OS(=O)(=O)O)C(OS(=O)(=O)O)C4OS(=O)(=O)O)C(OS(=O)(=O)O)C3OS(=O)(=O)O)C12C (centres unmarked)	FGF-1 (Homo sapiens)	1.25
CC(C)CCCC(C)C1CCC2C3CCC4CC(OC5OC(COC6OC(COS(=O)(=O)O)C(OC7OC(COS(=O)(=O)O)C(OC8OC(COS(=O)(=O)O)C(OS(=O)(=O)O)C(OS(=O)(=O)O)C8OS(=O)(=O)O)C(OS(=O)(=O)O)C7OS(=O)(=O)O)C(OS(=O)(=O)O)C6OS(=O)(=O)O)C(OS(=O)(=O)O)C(OS(=O)(=O)O)C5OS(=O)(=O)O)CCC4(C)C3CCC12C (centres unmarked)	FGF-1 (Homo sapiens)	5.9
CCCCCCCCCCCCCCCCCC(=O)NCCCO[C@@H]1O[C@H](COS(=O)(=O)[O-])[C@@H](O[C@H]2O[C@H](COS(=O)(=O)[O-])[C@@H](O[C@H]3O[C@H](COS(=O)(=O)[O-])[C@@H](OS(=O)(=O)[O-])[C@H](OS(=O)(=O)[O-])[C@H]3OS(=O)(=O)[O-])[C@H](OS(=O)(=O)[O-])[C@H]2OS(=O)(=O)[O-])[C@H](OS(=O)(=O)[O-])[C@H]1OS(=O)(=O)[O-].[Na+].[Na+].[Na+].[Na+].[Na+].[Na+].[Na+].[Na+].[Na+].[Na+]	FGF-1 (Homo sapiens)	32.2

Entry CC(C)CCCC(C)C1CCC2C3CCC4CC(OC5OC(COS(=O)(=O)O)C(OS(=O)(=O)O)C(OS(=O)(=O)O)C5OC5OC(COS(=O)(=O)O)C(OS(=O)(=O)O)C(OC6OC(COS(=O)(=O)O)C(OS(=O)(=O)O)C(OC7OC(COS(=O)(=O)O)C(OS(=O)(=O)O)C(OC8OC(COS(=O)(=O)O)C(OS(=O)(=O)O)C(OS(=O)(=O)O)C8OS(=O)(=O)O)C7OS(=O)(=O)O)C6OS(=O)(=O)O)C5OS(=O)(=O)O)CCC4(C)C3CCC12C (centres unmarked) ; Kd = 0.24

###

TESTED_TARGET: recombinant human heparanase (Homo sapiens)
Sequence (Q9Y251 158-543 limits assumed): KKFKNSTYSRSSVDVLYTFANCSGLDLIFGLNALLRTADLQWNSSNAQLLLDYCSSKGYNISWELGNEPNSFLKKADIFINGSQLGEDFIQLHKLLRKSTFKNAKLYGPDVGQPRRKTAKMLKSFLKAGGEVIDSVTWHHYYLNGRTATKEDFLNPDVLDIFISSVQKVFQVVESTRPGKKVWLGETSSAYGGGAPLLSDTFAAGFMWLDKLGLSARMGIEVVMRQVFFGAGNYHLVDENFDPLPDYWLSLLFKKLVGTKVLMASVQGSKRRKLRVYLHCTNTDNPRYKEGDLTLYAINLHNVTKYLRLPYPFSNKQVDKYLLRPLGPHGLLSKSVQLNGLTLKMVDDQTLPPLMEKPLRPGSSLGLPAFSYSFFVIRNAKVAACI
Sequence (Q9Y251 36-109 limits assumed): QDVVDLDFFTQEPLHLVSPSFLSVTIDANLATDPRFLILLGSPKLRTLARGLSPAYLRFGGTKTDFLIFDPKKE
TEST_DESCRIPTION: Heparanase inhibition assay (fondaparinux cleavage, WST-1)
MEASUREMENT_CONDITIONS: read-out: Ki Heparanase; IC50 converted into Ki; fondaparinux 100 μM, pH 5.0
Provide the recorded pKi for the entries that follow.
One number for each entry, as −log10 of the molar value.

A selection of reference data follows.
COMPOUND	TESTED_TARGET	pKi
CCCCCCCCCCCCCCCCCC(=O)NCCCOC1OC(COS(=O)(=O)O)C(OS(=O)(=O)O)C(OS(=O)(=O)O)C1OC1OC(COS(=O)(=O)O)C(OS(=O)(=O)O)C(OC2OC(COS(=O)(=O)O)C(OS(=O)(=O)O)C(OC3OC(COS(=O)(=O)O)C(OS(=O)(=O)O)C(OS(=O)(=O)O)C3OS(=O)(=O)O)C2OS(=O)(=O)O)C1OS(=O)(=O)O (stereo not shown)	recombinant human heparanase (Homo sapiens)	8.22
CC(C)CCCC(C)C1CCC2C3CCC4CC(OCc5cn(C6OC(COS(=O)(=O)O)C(OC7OC(COS(=O)(=O)O)C(OC8OC(COS(=O)(=O)O)C(OS(=O)(=O)O)C(OS(=O)(=O)O)C8OS(=O)(=O)O)C(OS(=O)(=O)O)C7OS(=O)(=O)O)C(OS(=O)(=O)O)C6OS(=O)(=O)O)nn5)CCC4(C)C3CCC12C (stereo not shown)	recombinant human heparanase (Homo sapiens)	7.80
CC(C)CCCC(C)C1CCC2C3CCC4CC(OC5OC(COS(=O)(=O)O)C(OC6OC(COS(=O)(=O)O)C(OC7OC(COS(=O)(=O)O)C(OS(=O)(=O)O)C(OS(=O)(=O)O)C7OS(=O)(=O)O)C(OS(=O)(=O)O)C6OS(=O)(=O)O)C(OS(=O)(=O)O)C5OS(=O)(=O)O)CCC4(C)C3CCC12C (stereo not shown)	recombinant human heparanase (Homo sapiens)	8.04

So for CC(C)CCCC(C)C1CCC2C3CCC4CC(OC5OC(COS(=O)(=O)O)C(OS(=O)(=O)O)C(OS(=O)(=O)O)C5OC5OC(COS(=O)(=O)O)C(OS(=O)(=O)O)C(OC6OC(COS(=O)(=O)O)C(OS(=O)(=O)O)C(OC7OC(COS(=O)(=O)O)C(OS(=O)(=O)O)C(OC8OC(COS(=O)(=O)O)C(OS(=O)(=O)O)C(OS(=O)(=O)O)C8OS(=O)(=O)O)C7OS(=O)(=O)O)C6OS(=O)(=O)O)C5OS(=O)(=O)O)CCC4(C)C3CCC12C (stereo not shown) , the logged pKi turned out to be 8.26
